Reference for the values: PubChem BioAssay (NCI)

assay procedure: NCI Yeast Anticancer Drug Screen. Data for the mec2-1 strain (AID 157)
protocol conditions: S. cerevisiae mec2-1 strain, at 11.0 µM, active compounds read high
About 79,000 compounds went through this panel and 15% of them were active in at least one assay; those are over-represented in the sample as a whole.
Reported growth inhibition by item:
Just the number in %, nothing appended.

Recorded results for 10 molecules are shown here.
> print(dat)
                                    molecule  quantitative.readout
 1  Cc1ccc(SSc2ccc(C)cc2[N+](=O)[O-])c([N+](=O)[O-])c1                    26
 2          Cc1cnc(/C=N\NC(N)=S)c2cccc(N)c12                    13
 3       COc1ccc2nc(N/N=C/c3sccc3C)cc(C)c2c1                    12
 4       O=C1c2ccc(O)cc2C(=O)c2c(O)ccc(O)c21                    87
 5  [N-]=[N+]=NC1CC(n2ccc(=O)[nH]c2=O)OC1COC(c1ccccc1)(c1ccccc1)c1ccccc1 (stereo not drawn)                    27
 6          CC(=O)O/N=C/c1c2ccccc2cc2ccccc12                     7
 7  CCSc1c2ccccc2c(-c2nc(F)nc(F)n2)n1CCc1ccccc1                    -4
 8                    O=Cn1c2ccccc2c2ccccc21                   -33
 9                CN(C)/N=N/c1nc[nH]c1C(N)=O                     1
10                    CC(C)(C(=O)NN)c1ccccc1                    24

Record CCOC(=O)C(NC(=O)c1ccccc1)[CH](c1ccccc1)[Sn]([c]1ccccc1)([c]1ccccc1)[c]1ccccc1 (stereo not drawn) , field growth inhibition: 1

Record `BrC/C=C/C[P+](c1ccccc1)(c1ccccc1)c1ccccc1` , field growth inhibition: 96

Record `C#CC1=CC(=O)C(OC)=CC1=O` , field growth inhibition: 89

* * *

assay procedure: NCI Yeast Anticancer Drug Screen. Data for the sgs1 strain (AID 173);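 also: 0% = growth of vehicle-only control cultures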
protocol conditions: S. cerevisiae sgs1 mutant, at 11.0 µM, active compounds read high
Protocol: Growth inhibition of yeast strains with defined genetic alterations is measured as a screen for potential anti-cancer activity. Selected strains with alterations in DNA damage repair or cell cycle control were exposed to compounds and growth inhibition was measured relative to vehicle treated controls. The strain used in this assay is sgs1
About 79,000 compounds went through this panel and 15% of them were active in at least one assay; those are over-represented in the sample as a whole.
measured metric: growth inhibition (%)
Just the number in %, nothing appended.

Recorded results for 5 compounds are shown here.
> print(dat)
                                   compound  uom  quantitative.readout
1  CCc1nc2ccc(N=Nc3c(O)ccc4ccccc34)cc2[nH]1    %                    24
2  CCSc1c2ccccc2c(-c2nc(F)nc(F)n2)n1CCc1ccccc1    %                    39
3  Cc1cc(N(CCOS(C)(=O)=O)CCOS(C)(=O)=O)ccc1C=O    %                    39
4  CCCC(=O)OC(OC(=O)CCC)c1ccc([N+](=O)[O-])o1    %                     7
5  CCCCCCCCCCCCOC1C(COCCN2CCCC2)OC2OC(C)(C)OC21 (stereo not drawn)    %                    97

Record `CCCCCCCCCCCCCCCCCN` , field growth inhibition: 58

Record `CN(C)N=Nc1ccc(NC=O)cc1` , field growth inhibition: 8

* * *

assay procedure: NCI Yeast Anticancer Drug Screen. Data for the rad50EPP+ strain (AID 151);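 also: 0% = growth of vehicle-treated control cultures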
protocol conditions: S. cerevisiae rad50 mutant strain, at 1.2 µM, active compounds read high
Description: Growth inhibition of yeast strains with defined genetic alterations is measured as a screen for potential anti-cancer activity. Selected strains with alterations in DNA damage repair or cell cycle control were exposed to compounds and growth inhibition was measured relative to vehicle treated controls. The strain used in this assay is rad50EPP+
This is part of a sample that, as a whole, favours compounds with a hit. Of some 79,000 tested, about 15% had one in any assay.
Reported growth inhibition by item:
Just the number in %, nothing appended.

> print(dat)
                                        mol    measured.metric  uom  quantitative.readout
1           Nc1nc(Nc2ccccc2)nc(Nc2ccccc2)n1  growth inhibition    %                     1
2  CCSc1c2ccccc2c(-c2nc(F)nc(F)n2)n1CCc1ccccc1  growth inhibition    %                   -22
3       Nc1c([N+](=O)[O-])cc2c3c(cccc13)CC2  growth inhibition    %                    10

Record `Cc1ccc2oc(-c3cccc(N)c3)nc2c1` , field growth inhibition: 1

Record `COc1cc(NCCCCCNC(C)C)c2ncccc2c1Cl` , field growth inhibition: 1

Record `COc1ccc(/C=C2\S/C(=N/Nc3nc(-c4ccccc4)cs3)NC2=O)cc1OC` , field growth inhibition: 29

Record `O=S(=O)(O)CC[S][Sn]([S]CCS(=O)(=O)O)([c]1ccccc1)[c]1ccccc1` , field growth inhibition: -20

Record `COc1cc(C(C)(C)C)cc(OC)c1C(O)(c1c(OC)cc(C(C)(C)C)cc1OC)c1c(OC)cc(C(C)(C)C)cc1OC` , field growth inhibition: -1

Record `CCCCOc1ccc(Nc2c3ccccc3nc3ccccc23)cc1` , field growth inhibition: 13

Record `CCCCCC(=O)C(C)(c1nc2n(c1O)/C(=N/C(=O)Nc1ccc(Cl)cc1)N=N2)c1nc2n(c1O)/C(=N/C(=O)Nc1ccc(Cl)cc1)N=N2` , field growth inhibition: 8

* * *

assay procedure: NCI Yeast Anticancer Drug Screen. Data for the rad18 strain (AID 177)
protocol conditions: S. cerevisiae rad18 mutant growth inhibition; at 100.0 µM; active compounds read high
This is part of a sample that, as a whole, favours compounds with a hit. Of some 79,000 tested, about 15% had one in any assay.
Reported growth inhibition by item:
Just the number in %, nothing appended.

> print(dat)
                                   molecule  quantitative.readout
1      O=S(=O)(Oc1c(Cl)cc(Cl)cc1Cl)c1ccccc1                    30
2  O=C1OC(/C=C/c2ccccc2)Sc2ccccc21 (stereo unspecified)                    43
3      Cc1ccc(P(c2ccc(C)cc2)c2ccc(C)cc2)cc1                    34

Record `CC(C)(C(=O)NN)c1ccccc1` , field growth inhibition: 92

Record O=C(O)NCC1CCCCC1 (tested in a mixture with another compound) , field growth inhibition: 45

Record S=C1NC2=C(CSC/C2=C\c2ccc(Cl)cc2)C(c2ccc(Cl)cc2)N1 (stereo unspecified) , field growth inhibition: 73

* * *

Reported growth inhibition by item:
assay procedure: NCI Yeast Anticancer Drug Screen. Data for the bub3 strain (AID 167)
protocol conditions: S. cerevisiae bub3 mutant strain, at 33.0 µM, active compounds read high
The panel holds about 79,000 compounds, 15% with a hit somewhere; the sample as a whole holds those more often.
Just the number in %, nothing appended.

Recorded results for 4 molecules are shown here.
> print(dat)
                                   molecule  uom  quantitative.readout
1                   O=c1[nH]cc(F)c(=O)[nH]1    %                    19
2  COC(=O)C1(N2CCOCC2)CCC([C@@H](c2ccccc2)C(C)[N+](=O)[O-])C1 (stereo partly drawn)    %                   -13
3  N=C(N)c1ccc(N=Nc2c(O)ccc3c2[nH]c2ccccc23)cc1    %                    95
4  O=S(=O)(O)c1ccc2c(N=Nc3c(O)ccc4ccccc34)cccc2c1    %                    59

Record COc1ccc(/C(=N/O)c2ccccc2C2=Nc3ccccc3C(NCc3ccccc3)O2)cc1C (stereo not drawn) , field growth inhibition: 48

Record CC(C)c1ccc(C2NC(=S)NC3=C2c2ccccc2C3=O)cc1 (stereo not drawn) , field growth inhibition: 81

Record `Cc1nc2ccccc2c(=O)n1NC(=O)c1ccc(CS)cc1` , field growth inhibition: 45

Record `CCSc1c2ccccc2c(-c2nc(F)nc(F)n2)n1CCc1ccccc1` , field growth inhibition: 82

* * *

assay procedure: NCI Yeast Anticancer Drug Screen. Data for the mec2-1 strain (AID 157)
protocol conditions: S. cerevisiae mec2-1 strain, at 100.0 µM
This is part of a sample that, as a whole, favours compounds with a hit. Of some 79,000 tested, about 15% had one in any assay. Calls of active or inactive are those of the source. No stated cut-off is given here; in the data, active means growth inhibition above about 70%; inactive means the rest.
In this exercise, the only acceptable responses are 1 (active), 0 (inactive)

Illustrative cases are given below, each with its answer.
> print(dat)
                                   compound  assigned.category
1  CC1C=CN(N(C)C)C2=C1C(=O)c1cnccc1C2=O (stereo unspecified)                  1
2  O=S(=O)(CCC[C@H]1[C@@H](CCOCc2ccccc2)C2CCCN1O2)c1ccccc1 (stereo partly specified)                  0
3  Cc1cc(NCCCN(C)C)c2ccc3c(ccc4c(NCCCN(C)C)cc(C)nc43)c2n1                  0
4  C[n+]1c(-c2ccc(NC(=O)c3ccc(C(=O)Nc4ccc(-c5cn6ccccc6[n+]5C)cc4)cc3)cc2)cn2ccccc21                  1
5  Cc1cc(N(CCOS(C)(=O)=O)CCOS(C)(=O)=O)ccc1C=O                  0

stdin: Kindly provide the recorded test outcome for the following compound: `CN(C)N1C(=O)SCC(c2ccccc2)(c2ccccc2)C1=O`
stdout: 0

stdin: Kindly provide the recorded test outcome for the following compound: `Nc1c([N+](=O)[O-])cc2c3c(cccc13)CC2`
stdout: 0

stdin: Kindly provide the recorded test outcome for the following compound: O=C1c2ccccc2C2CCC1c1ccccc12 (stereo unspecified)
stdout: 1
